- Test system: OVCAR-5
- PROTOCOL TEXT: NCI tumour cell line growth inhibition, 48 h
Activity calls are given as the source filed them. Cut-off read from the data, not from the text of the source: active = GI50 up to about 1.1 µM and inactive = higher.
MEASUREMENT NAME: GI50

Report GI50 for `CC(C)Sc1nc(C#N)cc2c1CCCC2` please. > 100 µM (inactive)

Form field: reported GI50 of CCOc1ccc(/N=N/C2C(=O)N(C(=O)CC(=O)Nc3ccc(Cl)cc3)N=C2C)cc1 (stereo unspecified) > 100 µM (inactive)

Look at this compound and give its reported GI50. CC(=O)C1=C(C)N(c2ccccc2)C2(O)C3=C(C(=O)c4ccccc4C3=O)C(O)=CC12Cl (stereo unspecified) 20 µM (inactive)

What value of measured GI50 is listed for COC(=O)C1=C(C(=O)OC)C2(C)C=CC1O2 (stereo unspecified) ? 17.6 µM (inactive)

Return reported GI50; argument: OC1[C@H](O)CN(OCc2ccccc2)C[C@@H]1O (stereo partly specified) > 100 µM (inactive)

Please look up its GI50: COC(=O)C1=C(O)C(C(=O)OC)[C@]2(O)[C@@H](C(=O)OC)[C@H]1[C@H](C)[C@@H](c1ccccc1)[C@@H]2C(=O)OC (stereo partly specified) > 100 µM (inactive)

---

Answer each item with its documented GI50.
- Test system: HCT-116
- PROTOCOL TEXT: NCI tumour cell line growth inhibition, 48 h
Activity calls are given as the source filed them. Cut-off read from the data, not from the text of the source: active = GI50 up to about 1.1 µM and inactive = higher.

What does the data say about its GI50? Entry: `O=C(COc1ccc(Cl)c(Cl)c1)N(Cc1ccccc1)Cc1ccc[n+](Cc2ccc(Cl)cc2S(=O)(=O)F)c1` > 100 µM (inactive)

Please give the measured GI50 for this compound: O=C1c2ccccc2N2OC3(N4CCOCC4)CCCC3C12c1ccccc1 (centres undefined) > 100 µM (inactive)

What value of GI50 has been recorded for this entry: COC(=O)/C(=N/NC(C)(C)C)C(C(=O)C=C(C)C)C(=O)C(=O)Nc1ccc(Cl)cc1C (centres undefined) > 100 µM (inactive)

Could you tell me which GI50 is on file for CC1=C(C(=O)OCCc2ccc([N+](=O)[O-])cc2)C(c2cccc([N+](=O)[O-])c2)C(C(=O)OC(C)C)=C(C)N1 (centres undefined) ? 3.69 µM (inactive)

---

- System: SNB-75
- PROTOCOL TEXT: NCI tumour cell line growth inhibition, 48 h
Calls of active or inactive are those of the source. No stated cut-off is given here; in the data, active = GI50 up to about 1.1 µM and inactive = higher.
Outcome (select one): active, inactive

Tell me the recorded outcome of this test for CCOP(=O)(C/C(O)=C1\C(=O)C(CCCNC(=O)OC(C)(C)C)N(Cc2ccc(OC)c(OC)c2)C1=O)OCC (configuration not stated) . inactive

Returns: the outcome recorded for COC(=O)C1=C(C(=O)OC)C2(C)C=CC1O2 (configuration not stated) in this assay. inactive

Please state the recorded outcome for this compound: COc1cc2c(c(OC)c1OC)-c1ccc(SC)c(=O)cc1C(CC(=O)Oc1ccc([N+](=O)[O-])cc1)C2 (configuration not stated) active

Called result for `O=c1ccc(-c2ccc(-n3ccnc3)cc2)nn1CCO` inactive

// param item: O=C(C(=O)N1CC2C=CC1CC2)c1c[nH]c2ccccc12 (configuration not stated) ; yields the recorded call inactive

Dear colleague, could you share the recorded outcome for `O=C1N/C(=N/N=C/c2c[nH]c3ccccc23)N/C1=C\c1cccs1` when you have a moment? inactive

Hello, I am checking results. What call was entered for `Cc1noc(NC(=O)Nc2ccccc2F)c1C#N` ? inactive

---

- System: U-251
- PROTOCOL TEXT: NCI tumour cell line growth inhibition, 48 h
Active and inactive are the calls of the source. Rule as the data show it: active = GI50 up to about 1.1 µM and inactive = higher.
For each entry below, report its GI50 value.

Need GI50 of `O=c1ccc2ccc(O)cc2o1` , thanks. > 100 µM (inactive)

Look at this compound and give its reported GI50. `O/N=N\c1nc(-c2ccccn2)nc2ccccc12` 17.5 µM (inactive)

I would be grateful if you could share the reported GI50 for CCCCCCCC1c2cc3nc(cc4[nH]c(cc5nc(cc([nH]2)[C@@]1(C)CC(=O)N(C)C)C(C)=C5CCC(=O)O)c(CCC(=O)O)c4C)C=C3C (stereo not given in full) . 18.9 µM (inactive)

Quick check: GI50 of O=C1OC2c3ccccc3C(=O)C2(c2ccccc2)N1c1ccccc1 (stereo not given) ? > 200 µM (inactive)

Reported GI50, compound Cc1ccc2c(O)c3c(cc2c1)C(=O)c1c2c(cc(O)c1C3=O)C1(C)OC(O2)C(O)C(N(C)C)C1O (stereo not given) : ____ 1.16 µM (inactive)

---

- Tested on: K562
- PROTOCOL TEXT: NCI tumour cell line growth inhibition, 48 h
Active and inactive are the calls of the source. No stated cut-off is given here; in the data, active = GI50 up to about 1.1 µM and inactive = higher.
Classes to choose from: true (1) (active), false (0) (inactive)

Could you please tell me the result logged for `O=C(NN1CCCCC1)c1cc2cc(CCl)ccc2oc1=O` in this assay? false (0)

// param item: `Oc1ccc2ccccc2c1/N=N/c1cccc2ccccc12` ; yields the recorded call false (0)

Assay outcome for O=C(Nc1ccc(Br)cc1)C(=O)C(C(=O)c1ccc(Cl)c(Cl)c1)C1OC(=O)c2ccccc21 (centres undefined) : what was it? false (0)

Assay outcome for `CC1=C(O)C(=O)C2=C(C1=O)[C@@H]([C@@H](C)C/C=C/C(C)(C)O)CC[C@@H]2C` : what was it? false (0)

Please share the test call associated with `Cn1c2ccc([N+](=O)[O-])cc2c(=O)c2c(O)cc(O)cc21` . false (0)

Per the assay record, what outcome was assigned to `CC(=O)Nc1cc2cc(NS(=O)(=O)c3cc(C(F)(F)F)cc(C(F)(F)F)c3)ccc2oc1=O` ? false (0)

Test call, this compound: `Cc1cc(C)c(C2=NO[C@@H]3C(=O)N(c4ccc(Cc5ccc(N6C(=O)[C@H]7C(c8c(C)cc(C)cc8C)=NO[C@H]7C6=O)cc5)cc4)C(=O)[C@H]23)c(C)c1` false (0)

I would be grateful if you could indicate the recorded call for `C[N+]1(CCCCN2c3ccccc3Sc3cc(N=[N+]=[N-])ccc32)CCN(C(=O)CCNC(=O)Cc2ccc(C(=O)c3ccccc3)cc2)CC1` . false (0)

Assay result, entry `COc1cc(O)cc(/C=C/c2ccc(O)cc2)c1` — outcome? false (0)

Field: outcome | Entry: `CN(C)c1ccc(C(=NN)c2ccc(N(C)C)cc2)cc1` true (1)

For this compound, state the assay outcome: `CC(C)(OCc1ccccc1)c1ccccc1P(c1ccccc1)c1ccccc1` false (0)

Hi, do you know how `O=[N+]([O-])c1ccc2c(c1)c(OCc1ccccc1)nn2Cc1ccccc1` came out in this test? false (0)

Hi team, can someone confirm the assay call for Oc1nc2cc(Cl)ccc2nc1/C(=N\Nc1ccccc1)C(O)c1ccc(Cl)c(Cl)c1 (centres undefined) ? false (0)

Dear all, I need the recorded test outcome for `Nc1ncnc2c1sc(=S)n2-c1ccccc1` , thank you. false (0)

Called result for CC(C)(C)C1CC[C@H]2c3c([nH]c4ccc(Br)cc34)[C@H]3C(=O)N(c4ccccc4)C(=O)[C@H]3[C@H]2C1 (some centres undefined) false (0)

Could you please tell me the result logged for `CCCOc1ccc(/C(Cl)=C(\C=O)c2ccc(OC)c(OC)c2)cc1OCCC` in this assay? false (0)

Per the records of this test, what outcome belongs to CC(=O)NC1C(OCc2ccccc2)OC(CO)C(O)C1OCC(=O)NC(C(=O)NC(CCC(=O)NCCCCCC(=O)Nc1ccc2c(c1)CN1C(=O)c3ccccc3C1=N2)C(N)=O)C(C)C (centres undefined) ? false (0)

Query: recorded result category for CCC(=O)C(C)C(=O)C(=O)C(=O)OC (centres undefined) in this test false (0)

Test call for this compound, please: `Cc1cc(CC(=O)NCCO)n(CCO)c(=O)c1` false (0)

---

- System: K562
- PROTOCOL TEXT: NCI tumour cell line growth inhibition, 48 h
The source made the active and inactive calls. Rule as the data show it: active = GI50 up to about 1.1 µM and inactive = higher.
Hi! Could you answer with just one of these? t = active, f = inactive

Short answer needed: outcome of this test for Clc1cccc(C2SCc3nc4ccccc4n32)c1 (centres undefined) ? f

Hi, do you know how COC1CC(C)(NC(C)=O)C2OC(c3ccccc3)OCC2O1 (centres undefined) came out in this test? f

Returns: the outcome recorded for COC(=O)C1=C(O)C(C(=O)OC)[C@@]2(O)[C@@H](C(=O)OC)C(c3ccc(OC(=O)/C=C/c4ccccc4)cc3)C[C@@H]1[C@@H]2C(=O)OC (some centres undefined) in this assay. f

Query: recorded result category for `N#Cc1cc([N+](=O)[O-])ccc1NC(=O)C(F)(F)F` in this test f

// return assay outcome for CC(=O)OC1(C)CC(C)C(=O)C(C(O)CC2CC(=O)NC(=O)C2)C1 (centres undefined) t

What classification did `Cc1ccnc(NC(NC(=O)c2ccccc2)(C(F)(F)F)C(F)(F)F)c1` end up with in this test? f

Hey, what did the test say about CC(=O)C1=C(C)N(c2ccccc2)C2(O)C3=C(C(=O)c4ccccc4C3=O)C(O)=CC12Cl (centres undefined) ? f

What is the recorded call for this compound in the test? CN1c2ccccc2N(C(=O)c2ccc(Cl)cc2)C(CC(=O)O)c2cccn21 (centres undefined) f

Any idea what this test logged for CC(=O)O[C@H]1CC[C@@]2(C)C(=CC[C@@H]3C2CC[C@]2(C)Nc4[nH]ncc4CC32)C1 (some centres undefined) ? f
